Tested on: A549 NSCLC
ASSAY INFO: NCI tumour cell line growth inhibition, 48 h
Task for the reader: assign each of the following molecules its reported TGI.
Answers are plain numbers, in µM.

Reference set, count: 3
molecule="O=C1c2[nH]c3ccccc3c2CCN2CCCCC12 (stereo not given)" tested_system="A549 NSCLC" unit=µM data_value=76.3
molecule="O=C(NN1C(=O)C(Cl)C1c1ccc(O)cc1)c1ccccc1O (stereo not given)" tested_system="A549 NSCLC" unit=µM data_value=50
molecule=O=C1C=CC(=O)c2cc3cc(CO)ccc3cc21 tested_system="A549 NSCLC" unit=µM data_value=45.1

// switching to the query molecule
Looking for the measured TGI of CN(CCCCCl)P(=O)(OCC1=CC(=O)c2ccccc2C1=O)OC[C@H]1O[C@@H](n2cc(F)c(=O)[nH]c2=O)C[C@@H]1O (stereo not given in full) , can you help? 0.553

====

Would you kindly list TGI for each of these compounds?
System: NCI-H226 lung
ASSAY INFO: NCI tumour cell line growth inhibition, 48 h
One number for each entry, in µM.

compound="CCOC(=O)C1C(=O)C=C(c2cc(C)ccc2O)CC1c1cccc(Cl)c1 (centres undefined)" unit=µM data_value=73.5

Batch of 5 compounds: report TGI for each.
1. O=C([O-])c1cc(I)cc(I)c1[OH2+].O=C([O-])c1cc(I)cc(I)c1[OH2+].[Mn+2]
2. Oc1ccc(O)c(Cc2ccccc2)c1
3. C/C=C(\C)[C@@H](O)C(=O)O[C@@H]1CC(C(C)(C)O)[C@](C)(CCC(=O)OC)[C@H]2[C@H](OC(=O)[C@H](O)[C@H](C)CC)C[C@]3(C)C(=CC[C@H]3[C@H]3CO[C@H](C=C(C)C)C3)[C@]12C (some centres undefined)
4. CCN(CC)Cc1cc(Nc2c3ccc(Cl)cc3nc3ccc(OC)cc23)ccc1O
5. COc1ccc(O)c(/C=N/NC(=S)N2CCCCC2)c1

74.1
57.2
50.9
21.4
7.96

Batch request: TGI per item, same order as input.
1. CC/C=C/C[C@H](O[Si](C)(C)C(C)(C)C)[C@H]1C[C@H]2O[C@H]([C@@H](O)C#C[Si](C)(C)C)C[C@H]2O1
2. O=C(/C=C/c1ccc(Cl)cc1)c1ccc(Nc2nc(Nc3ccc(F)cc3)nc(Nc3ccc(F)cc3)n2)cc1

20.6
53.8

====

System: MALME-3M melanoma
ASSAY INFO: NCI tumour cell line growth inhibition, 48 h; in the data active = GI50 below about 0.43 µM; inactive = the rest
Select the correct class. Options are active, inactive and nothing else.

Known results for molecules:
mol=CCOC(=O)N1C/C(=C/c2ccc(Cl)cc2)C(=O)/C(=C/c2ccc(Cl)cc2)C1 tested_system="MALME-3M melanoma" cat=inactive
mol=C=C1C(=O)O[C@H]2[C@H]1CC/C(COC(=O)/C=C/C(=O)NCc1ccc(Cn3c(=O)sn(-c4ccccc4)c3=O)cc1)=C\CC[C@@]1(C)O[C@@H]21 tested_system="MALME-3M melanoma" cat=inactive
mol=COc1cc2c(cc1I)-c1c(cc(OC)c(OC)c1OC)CC[C@@H]2NC(C)=O tested_system="MALME-3M melanoma" cat=active

Recorded call for COc1cc2c(cc1OCCCCCn1c(-c3ccc(OCc4ccccc4)cc3)nc3cc(N4CCOCC4)ccc31)N=C[C@@H]1CCCN1C2=O ? inactive

Query O=C1Nc2ccccc2/C1=C\c1c(Cl)nc2sccn12 next inactive
